From: paper PMC8979514

- Tgt: butyrylcholinesterase (BChE, E.C. 3.1.1.8) (Equus caballus)
- Construct: purchased Sigma Aldrich
- Sequence (P81908 whole entry): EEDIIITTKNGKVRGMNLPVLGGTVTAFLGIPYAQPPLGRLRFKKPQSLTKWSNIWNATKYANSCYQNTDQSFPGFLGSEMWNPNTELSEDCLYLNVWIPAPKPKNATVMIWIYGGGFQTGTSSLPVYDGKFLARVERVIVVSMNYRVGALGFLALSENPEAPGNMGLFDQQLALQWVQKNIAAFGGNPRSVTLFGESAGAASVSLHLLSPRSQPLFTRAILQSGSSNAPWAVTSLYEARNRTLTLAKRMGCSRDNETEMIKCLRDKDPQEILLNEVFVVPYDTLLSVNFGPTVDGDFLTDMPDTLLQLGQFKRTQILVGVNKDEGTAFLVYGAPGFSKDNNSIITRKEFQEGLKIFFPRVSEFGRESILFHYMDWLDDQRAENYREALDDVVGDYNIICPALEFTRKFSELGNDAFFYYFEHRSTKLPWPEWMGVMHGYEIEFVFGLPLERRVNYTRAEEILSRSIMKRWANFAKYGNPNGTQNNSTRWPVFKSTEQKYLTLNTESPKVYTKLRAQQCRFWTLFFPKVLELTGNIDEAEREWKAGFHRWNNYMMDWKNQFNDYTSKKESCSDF
- Run description: biochemical
- Parameters: species or system equine serum
- Applied conditions: IC50 BChE, BChE from equine serum, Ellman's method, phosphate buffer pH 7.5, room temperature
The following molecules are listed with their measured pIC50 values.
// pIC50 is dimensionless: -log10 of concentration (M)

>  <Smiles data>
CCOP(=O)(NCCCCCCNc1c2c(nc3ccccc13)CCCC2)OCC

>  <Tgt>
butyrylcholinesterase (BChE, E.C. 3.1.1.8) (Equus caballus)

>  <pIC50>
8.17

$$$$

Task item: Form: Entry = `CCCCOP(=O)(OCCCC)OCCNCCNc1c2c(nc3ccccc13)CCCC2` | System = butyrylcholinesterase (BChE, E.C. 3.1.1.8) (Equus caballus) | pIC50 = ____
Reply: 6.73

Task item: // fetch butyrylcholinesterase (BChE, E.C. 3.1.1.8) (Equus caballus) pIC50 for `CCCCOP(=O)(NCCCCCCCCCCCCNc1c2c(nc3ccccc13)CCCC2)OCCCC`
Reply: 7.21

Task item: Short answer please: pIC50, butyrylcholinesterase (BChE, E.C. 3.1.1.8) (Equus caballus), entry `CCCCOP(=O)(OCCCC)OCCCNc1c2c(nc3ccccc13)CCCC2`
Reply: 7.54

Task item: Param readout = pIC50; param system = butyrylcholinesterase (BChE, E.C. 3.1.1.8) (Equus caballus); param query = `CCCCOP(=O)(NCCCCCCCCNc1c2c(nc3ccccc13)CCCC2)OCCCC` ; response: value
Reply: 7.38

Task item: GET /values?readout=pIC50&system=butyrylcholinesterase (BChE, E.C. 3.1.1.8) (Equus caballus)&item= `O=P(NCCCCCCCCCCCCNc1c2c(nc3ccccc13)CCCC2)(Oc1ccccc1)Oc1ccccc1`
Reply: 8.71

Task item: Recall the recorded pIC50 for `CCOP(=O)(NCCCCCCCCNc1c2c(nc3ccccc13)CCCC2)OCC` with butyrylcholinesterase (BChE, E.C. 3.1.1.8) (Equus caballus) and state it.
Reply: 7.89

Task item: Provide the documented pIC50 with butyrylcholinesterase (BChE, E.C. 3.1.1.8) (Equus caballus) as the system for `O=P(OCCNCCNc1c2c(nc3ccccc13)CCCC2)(Oc1ccccc1)Oc1ccccc1`
Reply: 7.39

Task item: Please tell me: pIC50 of `O=P(OCCCNc1c2c(nc3ccccc13)CCCC2)(Oc1ccccc1)Oc1ccccc1` , system butyrylcholinesterase (BChE, E.C. 3.1.1.8) (Equus caballus)?
Reply: 7.42
